meta.source: paper PMC11477289

Assay: Chromatographic hydrophobicity index on C18 column (lipophilicity)
Assay type: physicochemical
Details: pH 2.6
Under this convention, 1.0 denotes CHI C18 pH 2.6 strictly below 90 and 0.0 denotes CHI C18 pH 2.6 at or above 90.

Some solved cases for reference:
O=S(=O)(NC1=Nc2ccccc2CN1)c1cccc2cc(Cl)ccc12 [PR 44]	0.0
Cc1cccc2c1CNC(NS(=O)(=O)c1cccc3ccccc13)=N2 [PR 61]	0.0
O=S(=O)(Nc1nc2ccccc2[nH]1)c1cccc2ccccc12 [PR 11]	1.0
CC1NC(NS(=O)(=O)c2cccc3ccccc23)=Nc2cc(Cl)ccc21 (stereo not drawn) [PR 70]	0.0
O=S(=O)(NC1=Nc2ccc(Cl)c(Cl)c2CN1)c1cccc2ccccc12 [PR 50]	0.0
O=S(=O)(NC1=Nc2cccc(Cl)c2CN1)c1ccc2ccccc2c1 [PR 31]	0.0
O=S(=O)(NC1=Nc2ccccc2CN1)c1cc(Cl)cc(Cl)c1 [PR 23]	0.0
O=S(=O)(NC1=Nc2ccccc2CN1)c1ccc(Cl)c(Cl)c1 [PR 21]	0.0

Regarding CN(C)CCC=C1c2ccccc2CCc2ccccc21 [Amitriptyline, reference compound] , kindly confirm whether its CHI C18 pH 2.6 is beneath 90.
1.0

Regarding Cc1ccc2c(c1)N=C(NS(=O)(=O)c1cccc3ccccc13)NC2 [PR 62] , kindly confirm whether its CHI C18 pH 2.6 is beneath 90.
0.0

Regarding O=S(=O)(NC1=Nc2cc(Cl)ccc2CN1)c1cccc2ccccc12 [PR 48] , kindly confirm whether its CHI C18 pH 2.6 is beneath 90.
0.0

----------
The molecules listed here are annotated with their melting point.

As a guide, the following entries are already answered.
O=S(=O)(NC1=Nc2ccc(C(F)(F)F)cc2CN1)c1cccc2ccccc12 [PR 57]	215 to 222 °C
O=S(=O)(NC1=Nc2c(Cl)cccc2CN1)c1cccc2ccccc12 [PR 49]	250 to 256 °C

// next item, melting point requested
Report melting point, nothing else, for this molecule: Nc1nc2ccccc2n1S(=O)(=O)c1csc2ccccc12 [PR 8]
192 to 195 °C
